procedure.details: Study MPKF: plasma pharmacokinetics of MDMA and MDA, single 120 mg MDMA·HCl, fasted/fed
Type: in vivo, human
details: human, plasma, oral, 120 mg, fed treatment group; 48 h; read-out: PK plasma concentration, Mean
Procedure: The MPKF was a Phase 1, open-label, randomized sequence, multi-dose, 2-period crossover food effect study in 16 healthy individuals. The MPKF study evaluated plasma concentrations of both MDMA and the active metabolite 3,4-methylenedioxyamphetamine (MDA). […] Sample Collection: Blood samples were collected at various time points up to 72 hours after dosing. The samples were analyzed using validated liquid chromatography-tandem mass spectrometry (LC-MS/MS) methods. […]
test.readout: concentration at 48 h (ng/mL)

CNC(C)Cc1ccc2c(c1)OCO2 (stereo not shown): 7.41
